# Tested on: P388 leukemia ip, CD2F1 mice, survival T/C
# Test Description: NCI In Vivo Anticancer Drug Screen. Data for tumor model P388 Leukemia (intraperitoneal) in CD2F1 (CDF1) mice
# Condition Context: endpoint: median survival time; dose: 200.0 mg/kg/injection; schedule: Q01DX009 (ip); vehicle: saline; higher = longer survival
# Protocol: The antitumor activity of compounds was measured in mice bearing transplantable tumors. Survival or tumor size were measured and the results are expressed as the measurement made in the treated group (T) divided by the measurement made in the vehicle treated control group (C). The tumor model used in this assay is P388 Leukemia (intraperitoneal) in CD2F1 (CDF1) mice
Inconclusive results and toxic doses are left out.
Listed here are compounds together with their documented T/C.

Query: I have this compound here, Cc1ccc(O)c(C2CC(=O)NC(NC#N)=N2)c1 (stereo unspecified) , and I need its recorded T/C.
Reply: 101 % of control

Query: I have this compound here, "O=C1CCSC(=S)N1c1ccc(Cl)c([N+](=O)[O-])c1" , and I need its recorded T/C.
Reply: 97 % of control

Query: I have this compound here, "C[P+]12CN3CN(CN(C3)C1)C2" , and I need its recorded T/C.
Reply: 101 % of control

Query: I have this compound here, CC1C(=O)C(C)C(c2ccc(Cl)cc2)OC1c1ccc(Cl)cc1 (stereo unspecified) , and I need its recorded T/C.
Reply: 114 % of control

###

# System: P388 leukemia ip, CD2F1 mice, survival T/C
# Test Description: NCI In Vivo Anticancer Drug Screen. Data for tumor model P388 Leukemia (intraperitoneal) in CD2F1 (CDF1) mice
# Condition Context: endpoint: median survival time; dose: 200.0 mg/kg/injection; schedule: Q04DX003 (ip); vehicle: saline with Tween-80; higher = longer survival
Inconclusive results and toxic doses are left out.
Measured Attribute: T/C

Examples with answers:
[
  {
    "Compound": "CCOC(=O)Sc1ncnc2nc[nH]c12",
    "Study Target": "P388 leukemia ip, CD2F1 mice, survival T/C",
    "Measured Attribute": "T/C",
    "Measurement": "108 % of control"
  },
  {
    "Compound": "CCSc1nc(C)cc(Cl)n1",
    "Study Target": "P388 leukemia ip, CD2F1 mice, survival T/C",
    "Measured Attribute": "T/C",
    "Measurement": "113 % of control"
  },
  {
    "Compound": "CCN(CC)Cc1cc(C)c(O)c(N=Nc2ccc([N+](=O)[O-])c(OC)c2)c1C",
    "Study Target": "P388 leukemia ip, CD2F1 mice, survival T/C",
    "Measured Attribute": "T/C",
    "Measurement": "99 % of control"
  },
  {
    "Compound": "COC(=O)/C=C(/C(=O)OC)N(C)Cc1ccccc1",
    "Study Target": "P388 leukemia ip, CD2F1 mice, survival T/C",
    "Measured Attribute": "T/C",
    "Measurement": "99 % of control"
  },
  {
    "Compound": "COC(=O)C(Cc1ccccc1)NCCNC(C)=O (configuration not stated)",
    "Study Target": "P388 leukemia ip, CD2F1 mice, survival T/C",
    "Measured Attribute": "T/C",
    "Measurement": "95 % of control"
  }
]

Query: I have this compound here, CC(CNC(=O)CCOS(C)(=O)=O)NC(=O)CCOS(C)(=O)=O (configuration not stated) , and I need its recorded T/C.
Reply: 175 % of control

Query: I have this compound here, "S=c1oc2cccc3c2n1CCC3" , and I need its recorded T/C.
Reply: 104 % of control
